test: AUC (last) in Cynomolgous monkey at 5 mg/kg, po measured upto 24 hrs by LC-MS/MS analysis; format: ADME, organism-based, Macaca fascicularis; conditions: cynomolgus monkey, in vivo
readout.label: AUC(0-t) at 24 h (ng·h/mL)
Give the value, in units of ng·h/mL, as a plain number.

stdin: Please look up its AUC(0-t) at 24 h: N#Cc1cc(-c2ccc(C(=O)O)c(O)c2)c2oc(F)cc2c1
stdout: 34200

* * *

assay: Half life in Tufted capuchin monkey at 30 mg/kg, po measured for 24 hrs by LC-MS/MS analysis; assay type: ADME, organism-based; conditions: sapajus apella, in vivo
readout.label: half-life (h)
Give the value, in units of h, as a plain number.

stdin: Please look up its half-life: N#Cc1cc(-c2ccc(C(=O)O)c(O)c2)c2oc(F)cc2c1
stdout: 3.1

* * *

experiment: Cmax in Tufted capuchin monkey at 100 mg/kg, po measured for 24 hrs by LC-MS/MS analysis; type: ADME, organism-based; settings: sapajus apella, in vivo
readout.label: Cmax (µg/mL)
Give the value, in units of µg/mL, as a plain number.

stdin: Please look up its Cmax: N#Cc1cc(-c2ccc(C(=O)O)c(O)c2)c2oc(F)cc2c1
stdout: 145

* * *

assay: Cmax in overnight-fasted Sprague-Dawley rat at 5 mg/kg, po measured upto 24 hrs by LC-MS/MS analysis; format: ADME, organism-based; details: in vivo
readout.label: Cmax (ng/mL)
Give the value, in units of ng/mL, as a plain number.

{"molecular.string": "N#Cc1cc(-c2ccc(C(=O)O)c(O)c2)c2ccoc2c1", "measured": 6550}

stdin: Please look up its Cmax: N#Cc1cc(-c2ccc(C(=O)O)c(O)c2)c2ccsc2c1
stdout: 2050

stdin: Then this compound: N#Cc1cc(-c2ccc(C(=O)O)c(O)c2)c2oc(Cl)cc2c1
stdout: 3700

stdin: Then this compound: N#Cc1cc(-c2ccc(C(=O)O)c(O)c2)c2occc2c1
stdout: 6830

stdin: Then this compound: N#Cc1cc(-c2ccc(C(=O)O)c(O)c2)c2oc(F)cc2c1
stdout: 17200

* * *

experiment: Clearance in Beagle dog at 1 mg/kg, iv measured upto 24 hrs by LC-MS/MS analysis; format: ADME, organism-based, Canis lupus familiaris; settings: in vivo
readout.label: clearance (mL/min/kg)
Give the value, in units of mL/min/kg, as a plain number.

stdin: Please look up its clearance: N#Cc1cc(-c2ccc(C(=O)O)c(O)c2)c2oc(F)cc2c1
stdout: 5.07

* * *

experiment: Clearance in overnight-fasted Sprague-Dawley rat at 1 mg/kg, iv measured upto 24 hrs by LC-MS/MS analysis; format: ADME, organism-based; conditions: in vivo
The compounds listed here are annotated with their clearance.
Give the value, in units of mL/min/kg, as a plain number.

{"molecular.string": "N#Cc1cc(-c2ccc(C(=O)O)c(O)c2)c2ccoc2c1", "clearance [mL/min/kg]": 1.93}
{"molecular.string": "N#Cc1cc(-c2ccc(C(=O)O)c(O)c2)c2oc(Cl)cc2c1", "clearance [mL/min/kg]": 2.77}

stdin: Please look up its clearance: N#Cc1cc(-c2ccc(C(=O)O)c(O)c2)c2ccsc2c1
stdout: 18.6

stdin: Then this compound: N#Cc1cc(-c2ccc(C(=O)O)c(O)c2)c2oc(F)cc2c1
stdout: 1.51

stdin: Then this compound: N#Cc1cc(-c2ccc(C(=O)O)c(O)c2)c2occc2c1
stdout: 2.4
